protocol text: Pharmacokinetic properties in rats
Format: in vivo, SD rats
experimental setup: rat, po 6 mg/kg vs iv 3 mg/kg
Exercise: state measured BA for each of the compounds provided.
Answers are plain numbers, in %.

For every record below, what is its BA?
1. O=c1ncn2nc(Sc3ccc(F)cc3F)ccc2c1-c1c(Cl)cccc1Cl [VX-745, reference compound]
2. O=c1ncn2nc(Oc3cc(F)c(F)cc3F)ccc2c1-c1c(Cl)cccc1Cl
3. O=c1ncn2nc(Oc3ccc(F)cc3F)ccc2c1-c1c(Cl)cccc1Cl

41.2
123.3
68.9

Find the recorded BA belonging to O=c1ncn2nc(Oc3ccc(F)cc3)ccc2c1-c1c(Cl)cccc1Cl and report it. 87.87

* * *

protocol text: Pharmacokinetic properties in rats
Type: in vivo, SD rats
experimental setup: male, SD, plasma; rat, iv 3 mg/kg
Exercise: state measured clearance for each of the compounds provided.
Answers are plain numbers, in mL/min/kg.

[
  {
    "compound": "O=c1ncn2nc(Oc3ccc(F)cc3F)ccc2c1-c1c(Cl)cccc1Cl",
    "clearance [mL/min/kg]": 8.33
  }
]

Find the recorded clearance belonging to O=c1ncn2nc(Sc3ccc(F)cc3F)ccc2c1-c1c(Cl)cccc1Cl [VX-745, reference compound] and report it. 25

* * *

Exercise: state measured Thalf (iv) for each of the compounds provided.
protocol text: Pharmacokinetic properties in rats
Type: in vivo, SD rats
experimental setup: rat, iv 3 mg/kg
Answer as a quantity: numeral, then unit.

For every record below, what is its Thalf (iv)?
1. O=c1ncn2nc(Oc3ccc(F)cc3)ccc2c1-c1c(Cl)cccc1Cl [Compound I-19]
2. O=c1ncn2nc(Sc3ccc(F)cc3F)ccc2c1-c1c(Cl)cccc1Cl [VX-745, reference compound]
3. O=c1ncn2nc(Oc3ccc(F)cc3F)ccc2c1-c1c(Cl)cccc1Cl [Compound I-4]
4. O=c1ncn2nc(Oc3cc(F)c(F)cc3F)ccc2c1-c1c(Cl)cccc1Cl [Compound I-43]

["2.81 h", "5.2 h", "3.4 h", "3.7 h"]

* * *

measured on: p38β (Homo sapiens, UniProt Q15759)
Sequence (Q15759 whole entry): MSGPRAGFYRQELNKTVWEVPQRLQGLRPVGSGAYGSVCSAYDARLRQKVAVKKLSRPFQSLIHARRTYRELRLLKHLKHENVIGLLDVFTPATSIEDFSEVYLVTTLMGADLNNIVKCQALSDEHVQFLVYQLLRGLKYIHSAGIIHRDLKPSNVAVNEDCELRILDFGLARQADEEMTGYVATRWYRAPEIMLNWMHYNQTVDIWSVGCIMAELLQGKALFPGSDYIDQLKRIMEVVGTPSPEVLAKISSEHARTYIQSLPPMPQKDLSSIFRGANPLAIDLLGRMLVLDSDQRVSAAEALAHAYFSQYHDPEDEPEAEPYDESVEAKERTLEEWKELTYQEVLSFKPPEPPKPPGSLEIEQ
protocol text: In vitro inhibition of p38 kinase (LANCE Ultra TR-FRET)
Format: biochemical
pIC50: −log10 of the molar value.
experimental readout: pIC50

Find the recorded pIC50 belonging to O=c1ncn2nc(OC3CC(F)(F)C3)ccc2c1-c1c(Cl)cccc1Cl [Compound I-1] and report it. < 5.48

* * *

Exercise: state measured IC50 for each of the molecules provided.
measured on: p38β (Homo sapiens)
protocol text: In vitro inhibition of p38 kinase (LANCE Ultra TR-FRET)
Type: biochemical
experimental setup: read-out: Kinase in vitro IC50(nM) p38β
Give bare numbers, in nM.

[
  {
    "chemical structure": "O=c1ncn2nc(Oc3cccc(F)c3)ccc2c1-c1c(Cl)cccc1Cl",
    "IC50 (nM)": 1430
  },
  {
    "chemical structure": "O=c1ncn2nc(Oc3cc(F)ccc3F)ccc2c1-c1c(Cl)cccc1Cl",
    "IC50 (nM)": 226
  },
  {
    "chemical structure": "O=c1ncn2nc(Oc3cccc(Br)c3)ccc2c1-c1c(Cl)cccc1Cl",
    "IC50 (nM)": 434
  },
  {
    "chemical structure": "CC(C)N1CCN(c2cc3c(-c4c(Cl)cccc4Cl)c(=O)ncn3nc2Oc2ccc(F)cc2F)CC1",
    "IC50 (nM)": 111
  }
]

For every record below, what is its IC50?
1. O=c1ncn2nc(Oc3ccc(F)cc3F)ccc2c1-c1c(F)cccc1F
2. Cc1ccccc1-c1c(=O)ncn2nc(Oc3ccc(F)cc3F)ccc12
3. Cc1cccc(C)c1-c1c(=O)ncn2nc(Oc3ccc(F)cc3F)ccc12
4. O=c1ncn2nc(Oc3cc(Cl)ccc3Cl)ccc2c1-c1c(Cl)cccc1Cl
5. O=c1ncn2nc(Oc3ccc(F)cc3F)ccc2c1C1=CCCCC1

[213, 1090, 643, 150, 635]

* * *

protocol text: Pharmacokinetic properties in rats
Format: in vivo, SD rats
experimental setup: male, SD, plasma; rat, po 6 mg/kg
experimental readout: Cmax (ng/mL)
One number for each entry, in ng/mL.

[
  {
    "compound": "O=c1ncn2nc(Oc3ccc(F)cc3)ccc2c1-c1c(Cl)cccc1Cl",
    "reported": 1090
  }
]

For every record below, what is its Cmax?
1. O=c1ncn2nc(Sc3ccc(F)cc3F)ccc2c1-c1c(Cl)cccc1Cl [VX-745, reference compound]
2. O=c1ncn2nc(Oc3ccc(F)cc3F)ccc2c1-c1c(Cl)cccc1Cl
3. O=c1ncn2nc(Oc3cc(F)c(F)cc3F)ccc2c1-c1c(Cl)cccc1Cl

1. 476
2. 994
3. 601

* * *

measured on: p38α (Homo sapiens)
Sequence (Q16539 whole entry): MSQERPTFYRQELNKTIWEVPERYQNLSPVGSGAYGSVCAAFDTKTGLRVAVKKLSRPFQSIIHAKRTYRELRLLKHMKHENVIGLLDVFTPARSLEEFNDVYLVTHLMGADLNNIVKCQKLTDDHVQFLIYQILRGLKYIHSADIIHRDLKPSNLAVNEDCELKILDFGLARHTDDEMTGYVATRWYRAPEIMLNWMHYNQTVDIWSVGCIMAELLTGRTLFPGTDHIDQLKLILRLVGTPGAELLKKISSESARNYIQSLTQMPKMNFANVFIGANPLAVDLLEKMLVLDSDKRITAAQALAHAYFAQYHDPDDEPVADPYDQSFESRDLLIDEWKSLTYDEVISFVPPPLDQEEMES
protocol text: In vitro inhibition of p38 kinase (LANCE Ultra TR-FRET)
Assay type: biochemical
experimental setup: read-out: Kinase in vitro IC50(nM) p38α
Exercise: state measured IC50 for each of the molecules provided.
Give bare numbers, in nM.

Below, 6 molecules whose answers are already recorded.
[
  {
    "chemical structure": "Cc1ccccc1-c1c(=O)ncn2nc(Oc3ccc(F)cc3F)ccc12",
    "measured on": "p38α (Homo sapiens)",
    "unit symbol": "nM",
    "IC50": 34.2
  },
  {
    "chemical structure": "O=c1ncn2nc(Oc3ccc(F)cc3F)ccc2c1-c1c(F)cc(F)cc1F",
    "measured on": "p38α (Homo sapiens)",
    "unit symbol": "nM",
    "IC50": 22.7
  },
  {
    "chemical structure": "O=c1ncn2nc(Oc3ccc(Cl)cc3)ccc2c1-c1c(Cl)cccc1Cl",
    "measured on": "p38α (Homo sapiens)",
    "unit symbol": "nM",
    "IC50": 24
  },
  {
    "chemical structure": "O=c1ncn2nc(Oc3cccc(F)c3)ccc2c1-c1c(Cl)cccc1Cl",
    "measured on": "p38α (Homo sapiens)",
    "unit symbol": "nM",
    "IC50": 151
  },
  {
    "chemical structure": "O=c1ncn2nc(Oc3cccc(Cl)c3Cl)ccc2c1-c1c(Cl)cccc1Cl",
    "measured on": "p38α (Homo sapiens)",
    "unit symbol": "nM",
    "IC50": 32.8
  },
  {
    "chemical structure": "CCOc1ccc2c(-c3c(Cl)cccc3Cl)c(=O)ncn2n1",
    "measured on": "p38α (Homo sapiens)",
    "unit symbol": "nM",
    "IC50": 1680
  }
]

Query molecule follows.
Find the recorded IC50 belonging to COC(=O)c1ccc(OC)c(-c2c(=O)ncn3nc(Oc4ccc(F)cc4F)ccc23)c1 and report it. 17.7

* * *

Exercise: state measured Cmax for each of the compounds provided.
protocol text: Pharmacokinetic properties in mice
Assay type: in vivo, ICR mice
experimental setup: male, ICR, mouse, plasma, po 10 mg/kg
Numbers only, in ng/mL.

[
  {
    "compound": "O=c1ncn2nc(Oc3ccc(F)cc3)ccc2c1-c1c(Cl)cccc1Cl [Compound I-19]",
    "Cmax (ng/mL)": 1820
  },
  {
    "compound": "O=c1ncn2nc(Sc3ccc(F)cc3F)ccc2c1-c1c(Cl)cccc1Cl [VX-745, reference compound]",
    "Cmax (ng/mL)": 750
  },
  {
    "compound": "O=c1ncn2nc(Oc3ccc(F)cc3F)ccc2c1-c1cc(Cl)ccc1Cl [Compound I-46]",
    "Cmax (ng/mL)": 891
  },
  {
    "compound": "O=c1ncn2nc(Oc3cc(F)c(F)cc3F)ccc2c1-c1c(Cl)cccc1Cl [Compound I-43]",
    "Cmax (ng/mL)": 1280
  },
  {
    "compound": "Cc1ccccc1-c1c(=O)ncn2nc(Oc3ccc(F)cc3F)ccc12 [Compound I-50]",
    "Cmax (ng/mL)": 928
  },
  {
    "compound": "O=c1ncn2nc(Oc3ccc(F)cc3F)ccc2c1-c1c(Cl)cccc1Cl [Compound I-4]",
    "Cmax (ng/mL)": 3000
  }
]

Find the recorded Cmax belonging to O=c1ncn2nc(Oc3ccc(F)cc3F)ccc2c1-c1c(F)cccc1Cl [Compound I-62] and report it. 1600

* * *

measured on: p38β (Homo sapiens, UniProt Q15759)
protocol text: In vitro inhibition of p38 kinase (LANCE Ultra TR-FRET)
Type: biochemical
experimental setup: read-out: Kinase in vitro IC50(nM) p38β
Exercise: state measured IC50 for each of the compounds provided.
Give bare numbers, in nM.

Below, 8 compounds whose answers are already recorded.
[
  {
    "chemical structure": "O=c1ncn2nc(Oc3ccc(F)cc3F)c(N3CCOCC3)cc2c1-c1c(Cl)cccc1Cl",
    "IC50 / nM": 32.7
  },
  {
    "chemical structure": "O=c1ncn2nc(Oc3ccc(F)cc3F)ccc2c1-c1cccc(Cl)c1Cl",
    "IC50 / nM": 947
  },
  {
    "chemical structure": "O=c1ncn2nc(Oc3ccc(F)cc3F)ccc2c1-c1ccc(Cl)cc1Cl",
    "IC50 / nM": 479
  },
  {
    "chemical structure": "O=c1ncn2nc(OC3CC=CC3)ccc2c1-c1c(Cl)cccc1Cl",
    "IC50 / nM": 2160
  },
  {
    "chemical structure": "O=c1ncn2nc(Oc3ccc(F)cc3F)ccc2c1-c1c(F)cccc1Cl",
    "IC50 / nM": 101
  },
  {
    "chemical structure": "O=c1ncn2nc(Oc3ccc(Br)cc3)ccc2c1-c1c(Cl)cccc1Cl",
    "IC50 / nM": 602
  },
  {
    "chemical structure": "O=c1ncn2nc(Oc3ccc(F)cc3F)c(-c3ccncc3)cc2c1-c1c(Cl)cccc1Cl",
    "IC50 / nM": 1220
  },
  {
    "chemical structure": "O=c1ncn2nc(Oc3ccc(F)c(Br)c3)ccc2c1-c1c(Cl)cccc1Cl",
    "IC50 / nM": 389
  }
]

For every record below, what is its IC50?
1. O=c1ncn2nc(Oc3ccc(Cl)cc3Br)ccc2c1-c1c(Cl)cccc1Cl
2. O=c1ncn2nc(Oc3cc(Br)ccc3Cl)ccc2c1-c1c(Cl)cccc1Cl
3. O=c1ncn2nc(Oc3ccc(Cl)cc3Cl)ccc2c1-c1c(Cl)cccc1Cl
4. O=c1ncn2nc(Oc3ccc(F)cc3F)ccc2c1-c1c(F)cc(F)cc1F

[263, 109, 96, 614]
